ASSAY TARGET: mHTT (Homo sapiens)
Construct: host or cells: ST HDH Q111/111 mouse striatal cell line (knock-in locus)
Sequence (P42858 with tags, fused parts or gaps with the stated changes): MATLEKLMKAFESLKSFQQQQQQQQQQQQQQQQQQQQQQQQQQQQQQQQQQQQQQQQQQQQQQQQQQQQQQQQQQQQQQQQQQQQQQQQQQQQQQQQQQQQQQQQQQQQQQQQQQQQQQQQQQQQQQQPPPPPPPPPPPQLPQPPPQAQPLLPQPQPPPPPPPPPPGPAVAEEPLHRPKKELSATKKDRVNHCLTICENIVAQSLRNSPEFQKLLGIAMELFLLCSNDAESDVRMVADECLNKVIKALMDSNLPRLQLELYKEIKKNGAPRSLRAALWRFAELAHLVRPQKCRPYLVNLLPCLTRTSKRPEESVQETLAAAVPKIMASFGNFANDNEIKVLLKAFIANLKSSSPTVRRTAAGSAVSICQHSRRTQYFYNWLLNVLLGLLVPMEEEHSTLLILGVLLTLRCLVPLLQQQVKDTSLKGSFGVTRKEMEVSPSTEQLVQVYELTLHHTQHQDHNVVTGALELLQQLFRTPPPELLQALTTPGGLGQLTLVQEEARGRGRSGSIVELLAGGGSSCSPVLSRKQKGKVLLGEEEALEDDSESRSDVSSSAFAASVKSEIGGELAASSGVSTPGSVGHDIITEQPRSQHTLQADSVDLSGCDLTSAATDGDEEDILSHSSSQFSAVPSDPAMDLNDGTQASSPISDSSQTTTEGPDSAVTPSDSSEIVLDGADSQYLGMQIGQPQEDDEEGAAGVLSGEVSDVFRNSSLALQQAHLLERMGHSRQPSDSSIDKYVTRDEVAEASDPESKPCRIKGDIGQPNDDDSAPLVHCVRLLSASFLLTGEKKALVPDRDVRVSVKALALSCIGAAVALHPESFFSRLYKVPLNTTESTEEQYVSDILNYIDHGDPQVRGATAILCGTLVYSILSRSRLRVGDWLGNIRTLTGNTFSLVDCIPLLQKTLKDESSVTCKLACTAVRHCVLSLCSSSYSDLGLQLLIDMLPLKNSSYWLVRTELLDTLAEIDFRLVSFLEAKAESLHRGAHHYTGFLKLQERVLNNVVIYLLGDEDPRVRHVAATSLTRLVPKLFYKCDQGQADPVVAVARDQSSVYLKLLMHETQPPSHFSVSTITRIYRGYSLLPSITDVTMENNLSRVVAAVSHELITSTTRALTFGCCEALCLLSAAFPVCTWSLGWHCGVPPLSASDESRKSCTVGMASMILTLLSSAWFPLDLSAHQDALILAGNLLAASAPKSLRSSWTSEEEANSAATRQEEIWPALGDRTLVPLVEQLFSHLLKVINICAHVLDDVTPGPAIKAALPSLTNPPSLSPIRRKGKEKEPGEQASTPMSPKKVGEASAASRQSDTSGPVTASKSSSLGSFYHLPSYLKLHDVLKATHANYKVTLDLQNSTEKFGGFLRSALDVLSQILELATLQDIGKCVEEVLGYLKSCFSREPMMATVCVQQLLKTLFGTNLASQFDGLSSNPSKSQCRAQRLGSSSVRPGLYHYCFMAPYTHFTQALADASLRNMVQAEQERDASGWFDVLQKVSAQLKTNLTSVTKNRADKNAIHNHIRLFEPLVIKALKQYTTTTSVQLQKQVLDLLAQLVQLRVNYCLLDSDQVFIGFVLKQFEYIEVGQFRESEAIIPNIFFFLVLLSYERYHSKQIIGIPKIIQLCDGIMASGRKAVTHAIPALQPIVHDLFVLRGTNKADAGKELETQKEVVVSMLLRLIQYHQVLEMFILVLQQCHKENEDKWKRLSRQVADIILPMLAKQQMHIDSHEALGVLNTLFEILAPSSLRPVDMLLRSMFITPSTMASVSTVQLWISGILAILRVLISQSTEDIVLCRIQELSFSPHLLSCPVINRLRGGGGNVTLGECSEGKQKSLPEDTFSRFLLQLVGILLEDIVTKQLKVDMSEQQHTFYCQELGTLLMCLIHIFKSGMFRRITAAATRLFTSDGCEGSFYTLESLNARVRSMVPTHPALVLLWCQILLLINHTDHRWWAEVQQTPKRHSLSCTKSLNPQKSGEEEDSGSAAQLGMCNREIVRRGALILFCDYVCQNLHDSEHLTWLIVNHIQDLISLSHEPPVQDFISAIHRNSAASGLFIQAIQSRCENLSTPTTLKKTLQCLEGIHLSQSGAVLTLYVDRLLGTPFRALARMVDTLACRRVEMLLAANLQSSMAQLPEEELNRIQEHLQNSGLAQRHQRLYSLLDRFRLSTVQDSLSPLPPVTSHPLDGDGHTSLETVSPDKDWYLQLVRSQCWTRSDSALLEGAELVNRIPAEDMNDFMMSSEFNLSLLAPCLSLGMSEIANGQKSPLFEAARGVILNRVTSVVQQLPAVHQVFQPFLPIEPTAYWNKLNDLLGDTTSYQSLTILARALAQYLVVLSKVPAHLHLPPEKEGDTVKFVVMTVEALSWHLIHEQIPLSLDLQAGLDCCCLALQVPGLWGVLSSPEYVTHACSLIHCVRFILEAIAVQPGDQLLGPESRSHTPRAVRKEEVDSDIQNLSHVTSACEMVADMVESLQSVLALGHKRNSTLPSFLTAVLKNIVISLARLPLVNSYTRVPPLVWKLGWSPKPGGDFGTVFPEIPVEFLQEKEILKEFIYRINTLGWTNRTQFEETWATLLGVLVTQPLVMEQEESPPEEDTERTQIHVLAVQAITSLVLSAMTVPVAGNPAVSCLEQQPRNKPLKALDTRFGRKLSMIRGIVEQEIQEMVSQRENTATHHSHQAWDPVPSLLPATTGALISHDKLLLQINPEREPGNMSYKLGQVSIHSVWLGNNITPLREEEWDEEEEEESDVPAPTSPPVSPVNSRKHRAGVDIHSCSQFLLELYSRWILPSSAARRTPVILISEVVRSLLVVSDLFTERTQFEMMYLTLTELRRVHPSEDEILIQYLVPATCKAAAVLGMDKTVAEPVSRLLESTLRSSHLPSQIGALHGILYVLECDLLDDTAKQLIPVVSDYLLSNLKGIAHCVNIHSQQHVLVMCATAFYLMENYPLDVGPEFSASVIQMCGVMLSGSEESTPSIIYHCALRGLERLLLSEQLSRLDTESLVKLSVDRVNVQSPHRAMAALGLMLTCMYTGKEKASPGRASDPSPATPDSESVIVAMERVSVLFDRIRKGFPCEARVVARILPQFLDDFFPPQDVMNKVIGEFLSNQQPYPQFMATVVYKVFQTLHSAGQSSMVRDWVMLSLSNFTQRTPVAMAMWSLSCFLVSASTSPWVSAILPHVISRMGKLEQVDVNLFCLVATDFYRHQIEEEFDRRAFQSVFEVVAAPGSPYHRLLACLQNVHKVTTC
ASSAY OVERVIEW: mHTT levels in striatal cells (immunocytochemistry)
Assay type: cell-based, mouse
EXPERIMENTAL CONDITIONS: STHdh 111/111; 10 µM; 3 hours heat shock, 48 hours treatment; percentage in comparison to untreated STHdh 111/111; 3B5H10 antibody; read-out: mHTT after treatment
Description: Staining - Cells were permeabilized with 0.3% Triton X-100 in 4 °C PBS (pH 7.4 from ThermoFisher) for 10 minutes. Then the cells were washed two times with 4 °C PBS. […] Compounds that bind the mHTT will reduce the levels of diffuse mHTT detected. […] Fluorescence Imaging - Imaging sessions were performed on a confocal microscope system (Carl Zeiss Microscopy) equipped with a dual spinning disk unit (Yokogawa). […] EC 50 value was determined with non-linear regression.
// boundary case: remaining activity at 10 µM equal to 50% maps to 0.0; strictly smaller maps to 1.0

Worked examples follow.
Cc1c(C)n(C)c2ccc(C(=O)NCCN3CCN(C)C(C)C3)cc12 (centres unmarked) [Compound 25]	1.0
O=C(NCCN1CCCCC1)c1ccc2[nH]c3c(c2c1)CCCC3 [Compound 16]	1.0
Cc1[nH]c2ccc(C(=O)NCCNC(C)(C)C)cc2c1C [Compound 50]	0.0

Next up:
Req: Is 50% strictly greater than the compound's reported remaining activity at 10 µM? compound: Cc1[nH]c2ccc(C(=O)NCCN3CCC3)cc2c1C [Compound 17]
Resp: 1.0
